SYSTEM: EhCP1 (Cysteine Protease 1 of Entamoeba histolytica) (Entamoeba histolytica, UniProt Q01957)
Construct: pro-mature polypeptide (Ile14 to Leu315), N-terminal hexahistidine tag
Sequence (Q01957 14-315): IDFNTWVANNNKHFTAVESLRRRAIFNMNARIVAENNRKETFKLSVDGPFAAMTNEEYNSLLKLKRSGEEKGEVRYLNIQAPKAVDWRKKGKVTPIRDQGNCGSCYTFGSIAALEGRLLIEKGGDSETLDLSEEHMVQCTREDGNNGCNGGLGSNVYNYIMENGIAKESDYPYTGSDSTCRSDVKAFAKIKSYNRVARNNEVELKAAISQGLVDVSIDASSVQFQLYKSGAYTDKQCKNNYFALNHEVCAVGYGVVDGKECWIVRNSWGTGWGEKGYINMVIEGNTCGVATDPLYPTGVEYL
PROTOCOL_SUMMARY: inhibition of purified recombinant enzyme, hydrolysis of Z-Arg-Arg-pNA and Z-Arg-Arg-AMC
READOUT_LABEL: pIC50
Scale: pIC50 equals -log10([C]), with [C] in mol/L.

Reported pIC50 of "CC(C)C[C@H](NC(=O)[C@H]1O[C@@H]1C(=O)O)C(=O)NCCCCN=C(N)N" : 6.00
